A collection of binders and their measured Intrinsic Activity, cAMP, 0.1 ng/mL Doxycycline
# TESTED TARGET: human melanocortin-4 receptor (human, UniProt P32245 1-332)
# Sequence (P32245 whole entry): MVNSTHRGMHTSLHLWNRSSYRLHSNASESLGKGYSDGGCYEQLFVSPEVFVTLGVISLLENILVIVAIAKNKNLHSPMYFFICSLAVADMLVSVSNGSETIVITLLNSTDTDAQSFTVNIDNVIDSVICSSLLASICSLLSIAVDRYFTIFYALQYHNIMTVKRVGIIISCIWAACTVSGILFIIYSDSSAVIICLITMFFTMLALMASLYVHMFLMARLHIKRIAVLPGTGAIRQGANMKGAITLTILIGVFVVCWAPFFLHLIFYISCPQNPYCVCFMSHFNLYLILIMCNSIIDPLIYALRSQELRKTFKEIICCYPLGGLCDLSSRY
# ASSAY NAME: cell-based or functional assay
Positions of bridges follow the written chain, without caps; N, C: chain ends. Non-standard residues stand in square brackets, D forms with d. dPhe(4-CN) = N#Cc1ccc(C[C@@H](N)C(=O)O)cc1; dPhe(2-Cl) = N[C@H](Cc1ccccc1Cl)C(=O)O; dPhe(4-F) = N[C@H](Cc1ccc(F)cc1)C(=O)O; Orn = NCCC[C@H](N)C(=O)O
Express your answer in %, writing the number without its unit.

Record excerpt, results attached:
Ac-RKQ[dPhe(4-CN)]RWD-NH2 (lactam 2-7; SMILES CC(=O)N[C@@H](CCCNC(=N)N)C(=O)N[C@H]1CCCCNC(=O)C[C@@H](C(N)=O)NC(=O)[C@H](Cc2c[nH]c3ccccc23)NC(=O)[C@H](CCCNC(=N)N)NC(=O)[C@@H](Cc2ccc(C#N)cc2)NC(=O)[C@H](CCC(N)=O)NC1=O, also called No. 93) [Ac-Arg-cyclo(Lys-Gln-D-Phe(4-CN)-Arg-Trp-Asp)-NH2] ... 44
Ac-REP[dPhe(4-F)]RW[Orn]-OH (lactam 2-7; SMILES CC(=O)N[C@@H](CCCNC(=N)N)C(=O)N[C@H]1CCC(=O)NCCC[C@@H](C(=O)O)NC(=O)[C@H](Cc2c[nH]c3ccccc23)NC(=O)[C@H](CCCNC(=N)N)NC(=O)[C@@H](Cc2ccc(F)cc2)NC(=O)[C@@H]2CCCN2C1=O) [Ac-Arg-cyclo(Glu-Pro-D-Phe(4-F)-Arg-Trp-Orn)-OH] ... 30
RDPXRWK (N-terminal Ac; D-Phe(4-F) 4; lactam Asp 2-Lys 7; C-terminal NH2, also called No. 103) [Ac-Arg-cyclo(Asp-Pro-D-Phe(4-F)-Arg-Trp-Lys)-NH2] ... 32

--- query ---
Prompt line: Please look up its Intrinsic Activity, cAMP, 0.1 ng/mL Doxycycline: Ac-RES[dPhe(2-Cl)]RW[Orn]-NH2 (lactam 2-7; SMILES CC(=O)N[C@@H](CCCNC(=N)N)C(=O)N[C@H]1CCC(=O)NCCC[C@@H](C(N)=O)NC(=O)[C@H](Cc2c[nH]c3ccccc23)NC(=O)[C@H](CCCNC(=N)N)NC(=O)[C@@H](Cc2ccccc2Cl)NC(=O)[C@H](CO)NC1=O, also called No. 31) [Ac-Arg-cyclo(Glu-Ser-D-Phe(2-Cl)-Arg-Trp-Orn)-NH2]
Response line: 33
